# assay protocol: in vivo
# Type: in vivo
# test conditions: mouse, in vivo, po, TD50
Lab note: anything with TD50 at 0.5 h below 300 mg/kg is marked yes; values at 300 mg/kg or higher are marked no.

Consider the worked cases shown below.
[
  {
    "smiles entry": "CO/N=C(\\C)c1scnc1C",
    "discrete label": "yes"
  },
  {
    "smiles entry": "CCCCON=C(C)c1scnc1C.Cl",
    "discrete label": "no"
  },
  {
    "smiles entry": "CON=C(C)c1scnc1C",
    "discrete label": "no"
  }
]

Lookup: Please let me know if "CCON=C(C)c1scnc1C" shows TD50 at 0.5 h below 300 mg/kg.
Found: no

Lookup: Please let me know if "CON=C(C)c1scnc1C.Cl" shows TD50 at 0.5 h below 300 mg/kg.
Found: yes

Lookup: Please let me know if "CC(=NOCc1ccccc1)c1scnc1C" shows TD50 at 0.5 h below 300 mg/kg.
Found: no

---

# assay protocol: in vivo
# test conditions: mouse, in vivo, po, LD50, Table II, male mice, 14 days
Listed here are compounds together with their documented LD50 at 336 h.

A selection of reference data follows.
[
  {
    "smiles entry": "CCON=C(C)c1scnc1C",
    "measured endpoint": "LD50 at 336 h",
    "measured result": "1000 mg/kg"
  },
  {
    "smiles entry": "CC(=NOCc1cccc(C(F)(F)F)c1)c1scnc1C",
    "measured endpoint": "LD50 at 336 h",
    "measured result": "> 1000 mg/kg"
  },
  {
    "smiles entry": "CC(=NO)c1sc(Br)nc1C",
    "measured endpoint": "LD50 at 336 h",
    "measured result": "> 1000 mg/kg"
  },
  {
    "smiles entry": "CC(=NOCc1ccccc1C)c1scnc1C",
    "measured endpoint": "LD50 at 336 h",
    "measured result": "> 1000 mg/kg"
  },
  {
    "smiles entry": "CC(=NOCCN(C)C)c1scnc1C",
    "measured endpoint": "LD50 at 336 h",
    "measured result": "> 1000 mg/kg"
  }
]

Lookup: Entry "CON=C(C)c1sc(C)nc1C" : reported LD50 at 336 h = ?
Found: > 1000 mg/kg

Lookup: Entry "CCCCON=C(C)c1scnc1C.Cl" : reported LD50 at 336 h = ?
Found: > 1000 mg/kg

Lookup: Entry "CON=C(C)c1sc(Cl)nc1C" : reported LD50 at 336 h = ?
Found: > 1000 mg/kg

Lookup: Entry "CON=C(C)c1scnc1C.Cl" : reported LD50 at 336 h = ?
Found: 1000 mg/kg

Lookup: Entry "CC(=NOC(C)C)c1scnc1C" : reported LD50 at 336 h = ?
Found: > 1000 mg/kg

Lookup: Entry "CON=C(C)c1scnc1C" : reported LD50 at 336 h = ?
Found: 740 mg/kg

Lookup: Entry "CC(=NOCC(=O)O)c1scnc1C" : reported LD50 at 336 h = ?
Found: > 1000 mg/kg

---

# assay protocol: in vivo
# Format: in vivo
# test conditions: mouse, in vivo, po, TD50 per os/ED50 per os, MCE; read-out: Protection index MCE
Listed here are compounds together with their documented selectivity ratio.
The response must contain the number and no unit.

[
  {
    "compound": "CC(=NOCc1ccccc1F)c1scnc1C [Ex. 13]",
    "selectivity ratio": 4
  }
]

Lookup: Entry CCCC(CCC)C(=O)O [VALP, sodium valproate, reference compound] : reported selectivity ratio = ?
Found: 2.8

Lookup: Entry CN1C(=O)OC(C)(C)C1=O [TRIM, trimethadione, reference compound] : reported selectivity ratio = ?
Found: 2

Lookup: Entry CC(=NOCc1ccccc1)c1scnc1C [Ex. 11] : reported selectivity ratio = ?
Found: 12.8
